This listing pairs compounds with measured IC50.
Tested on: MCF-7/WT
Assay: Cellular proliferation assay, IC50 of retinoids with/without cyclosporin A
Assay type: cell-based
Settings: Homo sapiens, MCF7, without cyclosporin A, read-out: IC50 Without CsA
# output: bare number, implied unit nM

Compound	Metric	Numeric result
CC1=C(/C=C/C(C)=C/C=C/C(C)=C/C(=O)O)C(C)(C)CCC1 [ATRA, all-trans-retinoic acid]	IC50	288

Then there is this compound:
Param readout= IC50; system= MCF-7/WT; entry= CC1=C(/C=C/C(C)=C/C=C/C(C)=C/C(=O)Nc2ccc(O)cc2)C(C)(C)CCC1 [4-HPR, N-(4-hydroxyphenyl) retinamide] ; returns value.
3760
